assay comment: physchem
measurement conditions: pH 7.4 buffer
Let's look at some molecules and their measured log10 of solubility thermodynamic.
Heads up: the numbers are on a log10 scale; they represent solubility thermodynamic in µM.

Reference set (5 entries):
{"molecule": "COc1cc2ncnc(Nc3cc(NC(=O)c4ccnc(N5CCOCC5)c4)ccc3C)c2cc1OCCN(C(C)C)C(C)C", "log10 of solubility thermodynamic": 2.38}
{"molecule": "Cc1ccc(CO)cc1N(C)c1ccnc(Nc2cc(N3CCCC3)cc(N3CCOCC3)c2)n1", "log10 of solubility thermodynamic": 1.06}
{"molecule": "COC[C@H](C)Oc1cc(O[C@@H](C)Cc2cc(F)cc(F)c2)cc(C(=O)Nc2ccc(C(=O)O)cn2)c1", "log10 of solubility thermodynamic": 2.81}
{"molecule": "Cc1ncc(-c2nc(Nc3ccc(N4CCN(C(=O)CO)CC4)cc3)ncc2F)n1C(C)C", "log10 of solubility thermodynamic": 2.20}
{"molecule": "CCN1C(=O)C(C)(C)c2cc3[nH]c4c(c3cc21)CCCc1c-4n[nH]c1C", "log10 of solubility thermodynamic": -0.15}

Fill in: log10 of solubility thermodynamic of Cc1cc(C)cc(-c2[nH]c3sc(C(C)(C)C(=O)N4C5CCC4CC5)cc3c2CCN2CCC(N3CCOCC3)CC2)c1 is ___ 0.86

Fill in: log10 of solubility thermodynamic of CCn1cc(NC(=O)Cc2ccc(Oc3ccnc4ccc(OC)cc34)cc2OC)cn1 is ___ 0.85

Fill in: log10 of solubility thermodynamic of COc1ccc(Cc2nccc3cc(OC)c(OC)cc23)cc1OC [PAPAVERINE] is ___ 1.58

Fill in: log10 of solubility thermodynamic of Cc1noc(C)c1CCC1CCN(S(=O)(=O)CC2(N(O)C=O)CCOC(C)(C)C2)CC1 (centres undefined) is ___ 2.93

Fill in: log10 of solubility thermodynamic of Cc1ccccc1Oc1cc(-n2ncc(Cl)c(Cl)c2=O)ncn1 is ___ 0.00

Fill in: log10 of solubility thermodynamic of CSCc1cc(N2CCOCC2)nc(-c2ccccc2)n1 is ___ 1.74
